target_or_system: human OPRM1 (μ, MOR) (Homo sapiens)
Construct: host or cells: CHO-K1
Sequence (P35372 whole entry): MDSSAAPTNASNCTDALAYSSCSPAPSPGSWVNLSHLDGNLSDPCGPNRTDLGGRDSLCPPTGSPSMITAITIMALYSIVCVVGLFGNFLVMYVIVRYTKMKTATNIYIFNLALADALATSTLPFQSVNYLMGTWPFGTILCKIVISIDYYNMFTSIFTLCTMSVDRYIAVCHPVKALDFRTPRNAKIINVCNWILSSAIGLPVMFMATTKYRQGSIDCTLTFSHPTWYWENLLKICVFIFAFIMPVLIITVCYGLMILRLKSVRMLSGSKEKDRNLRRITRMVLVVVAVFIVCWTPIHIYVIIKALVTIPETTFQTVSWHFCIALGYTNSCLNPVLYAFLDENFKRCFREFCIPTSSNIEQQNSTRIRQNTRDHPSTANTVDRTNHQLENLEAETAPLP
experimental_protocol: cell-based
test_conditions: PathHunter human OPRM1 Arrestin CHO-K1 cell line; read-out: cAMP EC50
pEC50: −log10 of the molar value. Counter-ions that a name gives are not always drawn.
property: pEC50

Below, each entry is followed by its recorded pEC50 result.
compound: COc1ccc2c(c1)CN(C(=O)NCC(c1ccsc1)N(C)C)C2 (centres unmarked) [Compound 5a, hydrochloride]
pEC50: < 4.00
//
compound: CN(C)C(CNC(=O)N1Cc2ccc(O)cc2C1)c1ccc(O)cc1 (centres unmarked) [Compound 24, hydrobromide]
pEC50: < 4.00
//
compound: Cc1ccc2c(c1)CN(C(=O)NCC(c1ccsc1)N(C)C)C2 (centres unmarked) [Compound 12a, hydrochloride]
pEC50: < 4.00
//
compound: CN(C)C(CNC(=O)NC1CCCc2ccccc21)c1ccsc1 (centres unmarked) [Compound 11a, hydrochloride]
pEC50: > 9.00

Continue with the next compound.
Recorded result, CN(C)C(CNC(=O)N1CC[C@@H](c2ccccc2)C1)c1ccsc1 (some centres unmarked) , pEC50: < 4.00

###

Documented cAMP Emax across a set of molecules
target_or_system: human OPRM1 (μ, MOR) (Homo sapiens)
Construct: host or cells: CHO-K1
experimental_protocol: cell-based
I only need the number, in %, no unit after it.

Below, each entry is followed by its recorded cAMP Emax result.
molecule: CNC(CNC(=O)N1Cc2ccccc2C1)c1ccsc1 (centres unmarked) [Compound 79]
property: cAMP Emax
recorded_measurement: 64.2
--
molecule: CNC(CNC(=O)N1Cc2ccccc2C1)c1ccsc1 (centres unmarked) [Compound 78]
property: cAMP Emax
recorded_measurement: 104.0
--
molecule: CNC(CNC(=O)N1Cc2ccc(F)cc2C1)c1ccc(OC)cc1 (centres unmarked) [Compound 83]
property: cAMP Emax
recorded_measurement: 100.1
--
molecule: CN(C)C(CNC(=O)N[C@H]1CCc2ccccc2C1)c1ccsc1 (some centres unmarked) [Compound 51]
property: cAMP Emax
recorded_measurement: 64.9
--
molecule: CN(C)C(CNC(=O)N[C@H]1CCc2ccccc2C1)c1ccsc1 (some centres unmarked) [Compound 67]
property: cAMP Emax
recorded_measurement: 50.9

Measured on human OPRM1 (μ, MOR) (Homo sapiens), CNC(CNC(=O)N1Cc2ccccc2C1)c1ccccc1 (single isomer, unassigned) [Compound 38-ent-B] has a documented cAMP Emax of 97.6

Measured on human OPRM1 (μ, MOR) (Homo sapiens), CN(C)C(CNC(=O)N[C@H]1CCc2ccccc2C1)c1ccsc1 (some centres unmarked) [Compound 52] has a documented cAMP Emax of 12.2

Measured on human OPRM1 (μ, MOR) (Homo sapiens), CN(C)C(CNC(=O)N1Cc2ccccc2C1)c1ccccc1 (single isomer, unassigned) [Compound 58] has a documented cAMP Emax of 109.1

###

target_or_system: human OPRM1 (μ, MOR) (Homo sapiens)
Construct: host or cells: CHO-K1
Assay type: cell-based
test_conditions: relative activity from EC50 and Emax of β-arrestin vs cAMP; lower RA = more G-protein biased
Structures can show the parent of a compound that is named as a salt.
Documented ΔRA of compound across a set of compounds

Below, each entry is followed by its recorded ΔRA of compound result.
compound: CNC(CNC(=O)N1Cc2ccccc2C1)c1ccsc1 (stereo not drawn) [Compound 79]
target_or_system: human OPRM1 (μ, MOR) (Homo sapiens)
ΔRA of compound: <−2.96

compound: CN(C)C(CNC(=O)N1CCCc2cc(F)ccc21)c1ccsc1 (stereo not drawn) [Compound 7a, hydrochloride]
target_or_system: human OPRM1 (μ, MOR) (Homo sapiens)
ΔRA of compound: <−2.96

Continue with the next compound.
Recorded result, CN(C)C(CNC(=O)N1Cc2cccc(C#N)c2C1)c1ccsc1 (stereo not drawn) , ΔRA of compound: <−2.96

###

target_or_system: human OPRM1 (μ, MOR) (Homo sapiens)
Construct: host or cells: CHO-K1
experimental_protocol: cell-based
test_conditions: PathHunter human OPRM1 Arrestin CHO-K1 cell line; read-out: cAMP EC50
pEC50: −log10 of the molar value. Where a name gives a salt, the structure may show the parent alone.
Think of 7 as a floor: if pEC50 stands on it or above, it is yes (1); beneath it, no (0).

compound: CN(C)C(CNC(=O)N1Cc2ccc(Cl)cc2C1)c1ccsc1 (centres unmarked) [Compound 4a, hydrochloride]
assigned_label: no (0)

compound: CN(C)C(CNC(=O)N1Cc2ccc(F)cc2C1)c1ccc(O)cc1 (centres unmarked) [Compound 21]
assigned_label: no (0)

compound: CN(C)C1(CNC(=O)N[C@H]2CCc3ccccc3C2)CCCC1 [Compound 65]
assigned_label: no (0)

Entry CN(C)[C@@H](CCNC(=O)N[C@@H]1CCc2ccccc2C1)c1ccsc1 [Compound 73] : is its pEC50 no less than 7?
no (0)

Entry COc1ccc(C(CNC(=O)N2Cc3ccc(F)cc3C2)N(C)C)cc1 (centres unmarked) [Compound 16a, hydrochloride] : is its pEC50 no less than 7?
yes (1)

Entry CN(C)C(CNC(=O)N[C@H]1CCc2ccccc2C1)c1ccsc1 (some centres unmarked) [Compound 52] : is its pEC50 no less than 7?
no (0)

Entry CN(C)C1(CNC(=O)N2Cc3ccccc3C2)CCCC1 [Compound 64] : is its pEC50 no less than 7?
no (0)

Entry CN(C)C(CNC(=O)N1Cc2ccc(F)cc2C1)c1ccc(F)cc1Cl (centres unmarked) [Compound 17a, hydrochloride] : is its pEC50 no less than 7?
yes (1)

Entry CNC(CNC(=O)N1Cc2cccc(F)c2C1)c1ccsc1 (centres unmarked) [Compound 81] : is its pEC50 no less than 7?
yes (1)

Entry CN(C)[C@@H](CCNC(=O)N[C@H]1CCc2ccccc2C1)c1ccsc1 [Compound 74] : is its pEC50 no less than 7?
no (0)

Entry COc1ccc(C(CNC(=O)N2CC[C@@H](c3ccccc3)C2)N(C)C)cc1 (some centres unmarked) [Compound 42] : is its pEC50 no less than 7?
no (0)

###

Structures can show the parent of a compound that is named as a salt.
property: melting point

Below, each entry is followed by its recorded melting point result.
molecule: CN(C)C(CNC(=O)N1Cc2ccc(F)cc2C1)c1ccccc1 (stereo not shown) (as salt: hydrochloride) [Compound 20a]
recorded_measurement: 148 to 150 °C
--
molecule: CN(C)[C@@H](CCNC(=O)N[C@@H]1CCc2ccccc2C1)c1ccsc1 [Compound 73]
recorded_measurement: 147 to 148 °C
--
molecule: CN(C)C(C)(C)CNC(=O)N1Cc2ccc(F)cc2C1 [Compound 62]
recorded_measurement: 200 to 202 °C

Continue with the next molecule.
Recorded result, CN(C)C(CNC(=O)N[C@@H]1CCc2ccccc2C1)c1ccsc1 (stereo partly shown) [Compound 66] , melting point: 164 to 166 °C

###

target_or_system: human OPRM1 (μ, MOR) (Homo sapiens)
Construct: host or cells: CHO-K1
Type: cell-based
test_conditions: relative activity from EC50 and Emax of β-arrestin vs cAMP; lower RA = more G-protein biased
Description: In certain embodiments, the ability of a compound to activate G-protein or β-arrestin is not an on/off switch for a given pathway, but rather a continuous function. To capture this, each compound is measured for activity in cell assays that are linked to β-arrestin recruitment and G-protein signaling. By comparing the activity between these two measures (accounting for both EC50 and maximal response reached, Emax) a relative activity (RA) value is determined. […]
Structures can show the parent of a compound that is named as a salt.
Documented ΔRA of compound across a set of compounds

Below, each entry is followed by its recorded ΔRA of compound result.
compound: CN(C)[C@@H](CCNC(=O)N1CC[C@@H](c2ccccc2)C1)c1ccsc1 [Compound 77]
recorded_measurement: <−2.96
//
compound: CNC(CNC(=O)N1Cc2ccc(F)cc2C1)c1ccsc1 (stereo not shown) [Compound 35]
recorded_measurement: <−2.96
//
compound: CN(C)C(CNC(=O)N(C)C1CCCc2ccccc21)c1ccsc1 (stereo not shown) [Compound 13a, hydrochloride]
recorded_measurement: −2.3
//
compound: CNC(CNC(=O)N1Cc2cccc(F)c2C1)c1ccsc1 (stereo not shown) [Compound 81]
recorded_measurement: <−2.96
//
compound: CN(C)C1(CNC(=O)N2Cc3ccccc3C2)CCCCC1 [Compound 54]
recorded_measurement: −1.78
//
compound: CN(C)C(CNC(=O)N[C@H]1CCc2ccccc2C1)c1ccsc1 (stereo partly shown) [Compound 51]
recorded_measurement: <−2.96
//
compound: COc1ccc(C(CNC(=O)N2CC[C@@H](c3ccccc3)C2)N(C)C)cc1 (stereo partly shown) [Compound 42]
recorded_measurement: <−2.96
//
compound: CNC(CNC(=O)N1Cc2ccccc2C1)c1ccccc1 (single isomer, unassigned) [Compound 38-ent-B]
recorded_measurement: <−2.96
//
compound: CN(C)C1(CNC(=O)N[C@@H]2CCc3ccccc3C2)CCCCC1 [Compound 55]
recorded_measurement: <−2.96
//
compound: CNC(CNC(=O)N1Cc2ccc(F)cc2C1)c1ccc(OC)cc1 (stereo not shown) [Compound 82]
recorded_measurement: <−2.96

Recorded result, CN(C)C1(CNC(=O)N2Cc3ccc(F)cc3C2)CCCC1 [Compound 63] , ΔRA of compound: <−2.96

Recorded result, CN(C)C(CNC(=O)N1Cc2cccc(F)c2C1)c1ccsc1 (stereo not shown) [Compound 3a, hydrochloride] , ΔRA of compound: −1.99

Recorded result, CNC(CNC(=O)N1Cc2ccccc2C1)c1ccccc1 (single isomer, unassigned; (-)) [Compound 38-ent-A] , ΔRA of compound: <−2.96
